Provenance of the data: patent US20240158391A1

# target.system: CDK9/CyclinT1 (Homo sapiens)
# Sequence (P50750 whole entry, species assumed): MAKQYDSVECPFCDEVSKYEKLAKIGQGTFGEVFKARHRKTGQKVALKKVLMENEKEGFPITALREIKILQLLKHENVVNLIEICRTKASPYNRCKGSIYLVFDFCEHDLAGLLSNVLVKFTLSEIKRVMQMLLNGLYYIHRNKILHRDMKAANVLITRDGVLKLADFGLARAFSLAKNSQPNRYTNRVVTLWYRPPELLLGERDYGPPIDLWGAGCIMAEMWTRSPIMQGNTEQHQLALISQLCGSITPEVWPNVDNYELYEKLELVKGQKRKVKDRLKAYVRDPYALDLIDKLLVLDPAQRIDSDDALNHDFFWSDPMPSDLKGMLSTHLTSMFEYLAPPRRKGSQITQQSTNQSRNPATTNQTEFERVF
# Sequence (O60563 whole entry partner, species assumed): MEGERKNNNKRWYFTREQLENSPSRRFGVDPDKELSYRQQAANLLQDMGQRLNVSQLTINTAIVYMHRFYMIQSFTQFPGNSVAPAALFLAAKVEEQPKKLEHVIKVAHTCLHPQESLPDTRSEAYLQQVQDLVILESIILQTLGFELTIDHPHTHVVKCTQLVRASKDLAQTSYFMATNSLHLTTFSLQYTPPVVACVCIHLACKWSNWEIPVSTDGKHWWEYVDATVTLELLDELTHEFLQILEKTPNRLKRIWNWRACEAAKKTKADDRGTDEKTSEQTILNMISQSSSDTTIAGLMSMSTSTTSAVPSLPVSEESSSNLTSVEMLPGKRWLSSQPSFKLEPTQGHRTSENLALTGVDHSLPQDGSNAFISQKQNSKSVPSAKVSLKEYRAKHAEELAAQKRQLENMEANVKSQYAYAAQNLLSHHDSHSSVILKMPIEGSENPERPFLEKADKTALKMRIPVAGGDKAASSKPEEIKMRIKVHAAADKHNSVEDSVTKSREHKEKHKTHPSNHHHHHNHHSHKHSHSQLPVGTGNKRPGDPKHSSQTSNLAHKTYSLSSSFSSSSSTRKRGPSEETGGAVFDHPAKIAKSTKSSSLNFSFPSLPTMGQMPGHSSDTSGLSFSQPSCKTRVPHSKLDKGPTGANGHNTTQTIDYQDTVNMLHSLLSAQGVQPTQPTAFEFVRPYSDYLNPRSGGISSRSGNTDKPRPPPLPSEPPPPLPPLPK
# experiment.summary: ADP Glo kinase assay, CDK9/CyclinT1
# condition.context: CDK9/CyclinT1; Km ATP; read-out: Enzymatic inhibition, Ki, CDK9 T1
pKi: −log10 of the molar value.

{"columns": ["substance.smiles", "pKi"],
 "data": [
  ["CN1CCN(c2ccc(Nc3nccc(-c4cnc5ccc(-c6cncnc6)cn45)n3)cn2)CC1", 8.22],
  ["CC(=O)N1CCN(c2ccc(Nc3nccc(-c4cnc5ccc(-c6cn[nH]c6)cn45)n3)cn2)CC1", 7.35],
  ["CCS(=O)(=O)N1CCN(c2ccc(Nc3nccc(-c4cnc5ccc(-c6ccc(F)nc6)cn45)n3)cn2)CC1", 6.37],
  ["CS(=O)(=O)N1CCN(c2ccc(Nc3nccc(-c4cnc5ccc(-c6ccco6)cn45)n3)cn2)CC1", 6.54]
]}
